Tested on: HCT116 (colon/p53wt)
Assay: in vitro antiproliferation assay, HCT116
Format: cell-based
Details: Homo sapiens, HCT-116; HCT116 colon/p53wt tumor cell line
pIC50: −log10 of the molar value.
This listing pairs molecules with measured pIC50.

{"LINE NOTATION": "Cc1cc(Nc2ncc(F)c(N[C@@H]3CCC[C@H]3C(N)=O)n2)ccc1N1CCN(C)CC1", "TARGET UNDER TEST": "HCT116 (colon/p53wt)", "PARAMETER": "pIC50", "RESULT": "> 5.30"}

Note: attention shifts to another entry.
Give the reported pIC50 for Cc1cc(Nc2ncc(F)c(N[C@@H]3CCC[C@@H]3C(N)=O)n2)ccc1N1CCN(C)CC1 (system: HCT116 (colon/p53wt)).
> 7.00
